Values were extracted from patent US20250270328A1.

# study system: T1, human KLRB1 protein extracellular domain (ECD) (human, UniProt Q12918 67-225)
# T1 construct: range 67-225; The ELISA and SPR text says only 'human KLRB1 ECD'; also called human KLRB1 ECD; CD161
# T1 sequence (looked up): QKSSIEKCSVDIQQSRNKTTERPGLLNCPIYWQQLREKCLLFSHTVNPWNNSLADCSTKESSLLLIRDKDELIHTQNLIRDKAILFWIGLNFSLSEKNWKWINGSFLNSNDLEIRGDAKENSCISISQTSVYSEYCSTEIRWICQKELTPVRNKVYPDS
# test name: SPR, human KLRB1 ECD; format not stated
outcome measure: kon (M⁻¹ s⁻¹)
Please state the figure in M⁻¹ s⁻¹; there is no need to write the unit.

Previously resolved entries follow.
[[record]]
binder = "10A3D6C109Chum5.5 (antibody, V domains shown, Humanized variant of 10A3D6 made by CDR grafting) VH: QVQLVQSGAEVKKPGASVKVSCKASGYSFTGYTMNWVRQAPGQNLEWMGLINPNTGGTYYNQKFKDRVTLTVDTSISTAYMELSRLRSDDTVVYYCARLGDNYRGYFDCWGQGTLVTVSS VL: EIVMTQSPATLSVSPGERATLSCKASQDVGTAVVWYQQKPGQAPRLLIDWASIRHTGIPARFSGSGSGTEFTLTISSLQSEDFAVYYCQQYSTYLYTFGGGTKVEIK"
outcome_measure = "kon"
value = 816000

[[record]]
binder = "10A3D6C109Chum5.3 (antibody, V domains shown, Humanized variant of 10A3D6 made by CDR grafting) VH: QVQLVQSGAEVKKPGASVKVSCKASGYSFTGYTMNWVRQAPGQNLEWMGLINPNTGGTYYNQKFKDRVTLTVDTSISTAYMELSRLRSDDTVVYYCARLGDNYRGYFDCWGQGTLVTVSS VL: DIQLTQSPSFLSASVGDRVTITCKASQDVGTAVVWYQQTPGKAPKLLIDWASIRHTGVPSRFSGSGSGTEFTLTISSLQPEDFADYFCQQYSTYLYTFGGGTKLEIK"
outcome_measure = "kon"
value = 868000


Next:
Req: Could you share which kon value was measured for 10A3D6C109Chum2.1 (antibody, V domains shown, Humanized variant of 10A3D6 made by CDR grafting) VH: QVQLVQSGAEVKKPGASVKVSCKASGYSFTGYTMNWVRQAPGQNLEWIGLINPNTGGTYYNQKFKDRVTLTVDTSISTAYMELSRLRSDDTAVYYCARLGDNYRGYFDCWGQGTTVTVSS VL: DIQLTQSPSFLSASVGDRVTITCKASQDVGTAVVWYQQKPGKAPKLLIYWASIRHTGVPSRFSGSGSGTEFTLTISSLQPEDFATYYCQQYSTYLYTFGGGTKLEIK ?
Resp: 315000
